Assay: Ligand charge of maytansinoid conjugates
Assay type: physicochemical
Metric name: Ligand charge

COc1cc2cc(c1Cl)N(C)C(=O)C[C@H](OC(=O)[C@H](C)N(C)C(=O)CCSSC(C)(C)[C@H](NC(=O)[C@@H]1CSSC[C@H](NC(=O)[C@@H](Cc3ccccc3)NCc3ccccc3)C(=O)N[C@@H](Cc3ccc(O)cc3)C(=O)N[C@H](Cc3c[nH]c4ccccc34)C(=O)N[C@@H](CCCCN)C(=O)N[C@@H]([C@@H](C)O)C(=O)N1)C(N)=O)[C@]1(C)O[C@H]1[C@H](C)[C@@H]1C[C@@](O)(NC(=O)O1)[C@H](OC)/C=C/C=C(\C)C2 [Conjugate 12] = +2

Next up:
Ask: Quick one: give measured Ligand charge for COc1cc2cc(c1Cl)N(C)C(=O)C[C@H](OC(=O)[C@H](C)N(C)C(=O)CCSSC[C@H](NC(=O)[C@@H]1CSSC[C@H](NC(=O)[C@H](N)Cc3ccccc3)C(=O)N[C@@H](Cc3ccc(O)cc3)C(=O)N[C@H](Cc3c[nH]c4ccccc34)C(=O)N[C@@H](CCCCNC(=O)NCCCCCCN)C(=O)N[C@@H]([C@@H](C)O)C(=O)N1)C(N)=O)[C@]1(C)O[C@H]1[C@H](C)[C@@H]1C[C@@](O)(NC(=O)O1)[C@H](OC)/C=C/C=C(\C)C2 [Conjugate 56]
Result: +2
